Test system: MFM-223
Experiment: drug sensitivity score (DSS), CellTiter-Blue viability (DSS (AUC-based score)); higher = stronger viability inhibition; extreme values may be limits of the assay
Details: incubation time: 72 h
reported_property: drug sensitivity score
Answers are plain numbers.

Previously resolved entries follow.
CCN(CCCOc1ccc2c(Nc3cc(CC(=O)Nc4cccc(F)c4)[nH]n3)ncnc2c1)CCOP(=O)(O)O    0
Oc1nc(-c2ccc(C(F)(F)F)cc2)nc2c1CSCC2    0
Cn1c(Nc2ccc(C(F)(F)F)cc2)nc2cc(Oc3ccnc(-c4ncc(C(F)(F)F)[nH]4)c3)ccc21    5.45

I would be grateful if you could provide drug sensitivity score for each of the following entries.
1. Cc1ccc(-n2nc(C(C)(C)C)cc2NC(=O)Nc2ccc(OCCN3CCOCC3)c3ccccc23)cc1
2. CN(C)/N=N/c1[nH]cnc1C(N)=O

1. 0
2. 0

Cited source for all entries: the supplement of paper PMC4862054
